In this section we review reported Relative cAMP EC50 values for a set of binders.
# system: human glucagon receptor (human) (UniProt P47871)
# Sequence (P47871 26-477): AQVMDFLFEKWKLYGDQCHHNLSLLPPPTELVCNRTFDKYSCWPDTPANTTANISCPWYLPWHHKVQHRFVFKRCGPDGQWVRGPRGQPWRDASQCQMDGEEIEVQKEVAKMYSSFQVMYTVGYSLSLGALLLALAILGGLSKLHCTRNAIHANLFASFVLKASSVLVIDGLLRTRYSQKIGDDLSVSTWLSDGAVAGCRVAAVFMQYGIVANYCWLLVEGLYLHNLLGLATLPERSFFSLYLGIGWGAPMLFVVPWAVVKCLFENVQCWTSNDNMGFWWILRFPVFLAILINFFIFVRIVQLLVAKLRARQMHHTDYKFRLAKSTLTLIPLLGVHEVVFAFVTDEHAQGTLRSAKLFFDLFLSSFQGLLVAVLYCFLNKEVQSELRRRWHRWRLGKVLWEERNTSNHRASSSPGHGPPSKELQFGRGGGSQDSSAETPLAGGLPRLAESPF
# assay: cell-based or functional assay
Non-standard residues stand in square brackets, D forms with d. No end group written: not given here. αMePhe(2-F) = C[C@](N)(Cc1ccccc1F)C(=O)O; Aib = CC(C)(N)C(=O)O
metricName: Relative cAMP EC50 (nM)

binder	metricName	valueUnit	observedMeasurement
YXQGTFTSDFSKXLDKKAQXAFIEYLLAGGPSSGAPPPSEG (Aib, αMeL; acylated lysine; C-terminal amide; synthetic construct; SITE 2: note = 2-Aminoisobutyric Acid; SITE 13: note = alpha-methyl-leucine; SITE 17: note = Lysine is chemically modified through conjugation of the epsilon-amino group of the Lysine side chain with (2-[2-(2-Amino-ethoxy)-ethoxy]-acetyl)-(gamma-Glu)-CO-(CH2) 18-CO2H; SITE 20: n) [Example 10]	Relative cAMP EC50	nM	7.62
YXQGTFTSDFSXXLDKKAQXAFIEYLLEAGPSSGAPPPSEG (not fully specified; synthetic construct; SITE 2: note = 2-Aminoisobutyric Acid; SITE 12: note = L-ornithine; SITE 13: note = alpha-methyl-leucine; SITE 17: note = Lysine is chemically modified through conjugation of the epsilon-amino group of the Lysine side chain with (2-[2-(2-Amino-ethoxy)-ethoxy]-acetyl)2-(gamma-Glu)) [Example 72]	Relative cAMP EC50	nM	5.48
Y[Aib]QGT[αMePhe(2-F)]TSDYSKLLDKIAQKAFIEYLIEGGPSSGAPPPSEG-NH2 (not fully specified (residue 20)) [Example 339]	Relative cAMP EC50	nM	6.81
YXQGTFTSDXSQXLDKKAQXAFIEXLIEXGPSSGAPPPSGTE (acylated Lys AEEA-γGlu-C18 diacid; non-natural residues; C-terminal amide; synthetic construct; SITE 2: note = 2-Aminoisobutyric Acid; SITE 10: note = 3-(4-Pyridyl)-L-alanine; SITE 13: note = alpha-methyl-leucine; SITE 17: note = Lysine is chemically modified through conjugation of the epsilon-amino group of the Lysine side chain with (2-[2-(2-Amino-ethoxy)-ethoxy]-acetyl)) [Example 1116]	Relative cAMP EC50	nM	8.2
YXQGTXTSDXSILLDKKAQXAFIEYLEEGGPSSGAPPPEGTGE (synthetic construct; SITE 2: note = 2-Aminoisobutyric Acid; SITE 6: note = alpha-methyl-2-fluoro-L-phenylalanine; SITE 10: note = 3-(4-Pyridyl)-L-alanine; SITE 17: note = Lysine is chemically modified through conjugation of the epsilon-amino group of the Lysine side chain with (gamma-Glu)2-CO-(CH2)1) [Example 660 (SEQ ID NO: 666)]	Relative cAMP EC50	nM	7.38
YXQGTFTSDFSQXLDKKAQXAFIEYLIEXGESSGAPPPSGE (non-natural residues; AEEA-γGlu-C18 diacid on Lys; C-terminal amide; synthetic construct; SITE 2: note = 2-Aminoisobutyric Acid; SITE 13: note = alpha-methyl-leucine; SITE 17: note = Lysine is chemically modified through conjugation of the epsilon-amino group of the Lysine side chain with (2-[2-(2-Amino-ethoxy)-ethoxy]-acetyl)-(gamma-Glu)-CO-(CH2) 16-CO2H; SITE 20: n) [Example 233]	Relative cAMP EC50	nM	2.25
